Where these numbers come from: patent USRE35904E

# Ki values compiled below
Target: es nucleoside transporter (Mus musculus)
Construct: endogenous in cells
Sequence (Q9JIM1 whole entry): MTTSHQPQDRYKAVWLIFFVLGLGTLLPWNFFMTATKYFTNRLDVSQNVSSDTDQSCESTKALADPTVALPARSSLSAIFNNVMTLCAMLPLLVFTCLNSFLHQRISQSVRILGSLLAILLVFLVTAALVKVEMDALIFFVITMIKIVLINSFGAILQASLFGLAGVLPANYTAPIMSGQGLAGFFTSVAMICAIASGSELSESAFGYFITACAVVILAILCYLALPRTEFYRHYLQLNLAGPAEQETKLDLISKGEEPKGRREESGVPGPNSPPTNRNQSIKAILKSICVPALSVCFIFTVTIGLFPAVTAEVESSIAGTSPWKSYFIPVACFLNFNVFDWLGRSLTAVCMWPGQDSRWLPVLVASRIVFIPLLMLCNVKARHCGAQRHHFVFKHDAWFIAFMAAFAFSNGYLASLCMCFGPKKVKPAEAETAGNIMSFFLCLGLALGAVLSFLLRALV
Test: [3H]NBMPR equilibrium binding to L1210/B23.1 cells and its inhibition by SAENTA-fluorescein probes
Details: 22°, replots of Kd(app)/Bmax versus [probe], read-out: Ki (mean ± S.D.)
Unit nM implied. Number only.

Known results for molecules:
molecule	Ki (nM)
O=C(CCCCCNC(=O)c1ccc2c(c1)C1(OC2=O)c2ccc(O)cc2Oc2cc(O)ccc21)NCCSC[C@H]1O[C@@H](n2cnc3c(NCc4ccc([N+](=O)[O-])cc4)ncnc32)[C@H](O)[C@@H]1O [6-(SAENTA-X8)-fluorescein]	1.7
O=C1OC2(c3ccc(O)cc3Oc3cc(O)ccc32)c2cc(NC(=S)NCCSC[C@H]3O[C@@H](n4cnc5c(NCc6ccc([N+](=O)[O-])cc6)ncnc54)[C@H](O)[C@@H]3O)ccc21 [6-(SAENTA-X2)-fluorescein]	9.9
O=C1OC2(c3ccc(O)cc3Oc3cc(O)ccc32)c2ccc(NC(=S)NCCSC[C@H]3O[C@@H](n4cnc5c(NCc6ccc([N+](=O)[O-])cc6)ncnc54)[C@H](O)[C@@H]3O)cc21 [5-(SAENTA-X2)-fluorescein]	17

# ---- query molecule ----
Task item: Requested read-out Ki, target or system es nucleoside transporter (Mus musculus), entry O=C(CCCCCNC(=O)c1ccc2c(c1)C(=O)OC21c2ccc(O)cc2Oc2cc(O)ccc21)NCCSC[C@H]1O[C@@H](n2cnc3c(NCc4ccc([N+](=O)[O-])cc4)ncnc32)[C@H](O)[C@@H]1O [5-(SAENTA-X8)-fluorescein]
Reply: 0.8
